Values were extracted from the supplement of paper PMC7184167.

Please go through the items and note down their relative cell viability.
test system: replication-induced senescent mouse newborn dermal fibroblasts (NBF); assay: relative cell viability of senescent cells (fraction); higher = less killing of senescent cells; conditions: 1 µM; 3 days
Structures can show the parent of a compound that is named as a salt.

Compound | System name | Reported measurement
CCCc1cc(C(N)=S)ccn1 [Protionamide] | replication-induced senescent mouse newborn dermal fibroblasts (NBF) | 1.02
COC(=O)C1=C(C)NC(C)=C(C(=O)OC(C)C)C1c1cccc2nonc12 (centres undefined) | replication-induced senescent mouse newborn dermal fibroblasts (NBF) | 0.977
COC(=O)[C@H](c1ccccc1Cl)N1CCc2sccc2C1 | replication-induced senescent mouse newborn dermal fibroblasts (NBF) | 0.983

Please supply relative cell viability for each of the following items, keeping them in order.
1. COc1cc2nccc(Oc3ccc(NC(=O)NC4CC4)c(Cl)c3)c2cc1C(N)=O [Lenvatinib (E7080)]
2. O=c1[nH]c(=O)n([C@H]2C[C@H](O)[C@@H](CO)O2)cc1I
3. C[N+]1(C)[C@@H]2C[C@@H](OC(=O)C(O)(c3cccs3)c3cccs3)C[C@H]1[C@@H]1O[C@@H]12 [Tiotropium Bromide hydrate]
4. CCCCC1C(=O)N(c2ccccc2)N(c2ccccc2)C1=O
5. Oc1ncnc2[nH]ncc12

Reply:
1: 0.123; 2: 0.949; 3: 1.07; 4: 0.899; 5: 0.796

Query: Answer with the recorded relative cell viability for the compound listed here: CCC(C)(C)c1ccc(CC(C)CN2C[C@@H](C)O[C@@H](C)C2)cc1 (some centres undefined) [Amorolfine HCl]
Reply: 1.09

* * *

test system: replication-induced senescent mouse newborn dermal fibroblasts (NBF); experiment: relative cell viability of senescent cells (fraction); higher = less killing of senescent cells; conditions: 1 µM; 3 days
Where a name gives a salt, the structure may show the parent alone.
For each entry below, report its relative cell viability value.
Numbers only.

Compound | relative cell viability
CC(=O)Nc1ccc(O)cc1 | 0.803
Cc1ccc(C)c(OCCCC(C)(C)C(=O)O)c1 | 1.02
COc1cc(Nc2nc3ccccc3nc2NS(=O)(=O)c2ccc(NC(=O)c3ccc(C)c(OC)c3)cc2)cc(OC)c1 | 0.969
COc1cc(/C=C/C(=O)CC(=O)/C=C/c2ccc(O)c(OC)c2)ccc1O | 0.768
CN(C)[C@@H](CCOc1cccc2ccccc12)c1ccccc1 [Dapoxetine HCl] | 1.08
Nc1ccccc1NC(=O)c1ccc(CNc2nccc(-c3cccnc3)n2)cc1 | 0.36

Batch of 5 compounds: report relative cell viability for each.
1. Oc1c(Cl)cc(Cl)c2cccnc12
2. COc1ccc2[nH]cc(CCNC(C)=O)c2c1
3. COc1ccccc1OCC(O)CO (stereo unspecified)
4. Nc1nc2c(ncn2COC(CO)CO)c(=O)[nH]1
5. CC(C)OC(=O)C(C)(C)Oc1ccc(C(=O)c2ccc(Cl)cc2)cc1 [Fenofibrate]

Reply:
1. 0.982
2. 1.05
3. 1.12
4. 0.995
5. 1.06

* * *

tested on: replication-induced senescent mouse newborn dermal fibroblasts (NBF); test: relative cell viability of senescent cells (fraction); higher = less killing of senescent cells; conditions: 1 µM; 3 days
Exercise: for every item that follows, state its recorded relative cell viability.

Compound | relative cell viability
O=c1[nH]c(=O)n([C@H]2C[C@H](O)[C@@H](CO)O2)cc1C(F)(F)F | 0.971
COC(=O)c1ccc2c(C(=Nc3ccc(N(C)C(=O)CN4CCN(C)CC4)cc3)c3ccccc3)c(O)[nH]c2c1 | 1.01
CNCc1ccc(-c2[nH]c3cc(F)cc4c3c2CCNC4=O)cc1 | 0.0458
Cc1cn([C@@H]2C[C@@H](O)[C@H](CO)O2)c(=O)[nH]c1=O | 1
NC(=O)c1cnccn1 [Pyrazinamide] | 1.17

# batch size: 3; output relative cell viability per entry
1. C=C1/C(=C\C=C2/CCC[C@]3(C)[C@@H]([C@H](C)/C=C/[C@H](C)C(C)C)CC[C@@H]23)C[C@@H](O)C[C@@H]1O
2. C=C1/C(=C\C=C2/CCC[C@]3(C)[C@@H]([C@H](C)CCCC(C)C)CC[C@@H]23)C[C@@H](O)C[C@@H]1O
3. C[C@@H]1[C@H](O)[C@@H](C)/C=C/C=C/C=C/C=C/C=C/C=C/C=C/[C@H](O[C@@H]2O[C@H](C)[C@@H](O)[C@H](N)[C@@H]2O)C[C@@H]2O[C@](O)(C[C@@H](O)C[C@@H](O)[C@H](O)CC[C@@H](O)C[C@@H](O)CC(=O)O[C@H]1C)C[C@H](O)[C@H]2C(=O)O

Reply:
1. 1.22
2. 0.249
3. 0.766

* * *

Exercise: state measured relative cell viability for each of the compounds provided.
system: replication-induced senescent mouse newborn dermal fibroblasts (NBF); experiment: relative cell viability of senescent cells (fraction); higher = less killing of senescent cells; settings: 1 µM; 3 days

Compound | Reported measurement
O=C(O)CSCC(=O)NC1CCSC1=O (configuration not stated) | 0.979

Give relative cell viability for each listed item.
1. CC1COc2c(N3CCN(C)CC3)c(F)cc3c(=O)c(C(=O)O)cn1c23 (configuration not stated)
2. CC(=O)O[C@H]1C[C@@H]2CC[C@@H]3[C@H](CC[C@@]4(C)[C@H]3C[C@H]([N+]3(C)CCCCC3)[C@@H]4OC(C)=O)[C@@]2(C)C[C@@H]1N1CCCCC1 [Vecuronium Bromide]

Reply:
[1, 1.08]

Below are 4 compounds. Give each one its relative cell viability.
1. CCCCCCCCCCC[C@@H](C[C@@H]1OC(=O)[C@H]1CCCCCC)OC(=O)[C@H](CC(C)C)NC=O
2. C[C@@H]1C/C=C/C=C/C=C/C=C/[C@H](O[C@@H]2O[C@H](C)[C@@H](O)[C@H](N)[C@@H]2O)C[C@@H]2O[C@](O)(C[C@@H](O)C[C@H]3O[C@@H]3/C=C/C(=O)O1)C[C@H](O)[C@H]2C(=O)O
3. CC(C(=O)O)c1ccc(C(=O)c2cccs2)cc1 (configuration not stated)
4. NC(=O)N1c2ccccc2C=Cc2ccccc21 [Carbamazepine]

Reply:
0.998
0.0794
0.929
0.859
